test system: IMC-1 (IL-2 20 ng/mL); test: relative IC50 (inflection point of fitted viability curve, relative to fitted max inhibition); higher = less sensitive; conditions: 72 h
READOUT KIND: relative IC50 (nM)
Answer with a number only, understood to be in nM.

Below, each entry is followed by its recorded relative IC50 result.
COC(=O)C[C@](O)(CCCC(C)(C)O)C(=O)O[C@@H]1C(OC)=C[C@]23CCCN2CCc2cc4c(cc2[C@H]13)OCO4 = 33.6
CN(c1ccccc1CNc1nc(Nc2ccc3c(c2)CC(=O)N3)ncc1C(F)(F)F)S(C)(=O)=O = 1130
O=C(O)C(=O)O.[NH-][C@@H]1CCCC[C@H]1[NH-].[Pt+2] = 9490
Cc1[nH]c2ccccc2c1CCNCc1ccc(/C=C/C(=O)NO)cc1 = 29.9
CC(C)Oc1ccc(C(=O)N[C@H](CNC(=O)CN(C)C)Cc2ccc(-c3cn4cccc([C@H](C)O)c4n3)cc2)cc1Cl = 261
COc1cc2c(NC3CCN(C(C)C)CC3)nc(C3CCCCC3)nc2cc1OCCCN1CCCC1 = 2780

What the record says about C=CC(=O)Nc1cc2c(Nc3ccc(F)c(Cl)c3)ncnc2cc1OCCCN1CCOCC1 : relative IC50 is 3700

What the record says about Nc1ncnc2c1nc(N)n2[C@@H]1O[C@H](CO)[C@@H](O)[C@H]1O : relative IC50 is 1080

What the record says about COc1ccc(C[C@H](NC(=O)[C@H](C)NC(=O)CN2CCOCC2)C(=O)N[C@@H](Cc2ccccc2)C(=O)C2(C)CO2)cc1 (stereo in doubt) : relative IC50 is 158

What the record says about COc1cccc2c1C(=O)c1c(O)c3c(c(O)c1C2=O)C[C@@](O)(C(C)=O)C[C@@H]3O[C@H]1C[C@H](N)[C@H](O)[C@H](C)O1 : relative IC50 is 19.2

What the record says about Cn1cc(C2=Nc3cc(NC(=O)C(N)C4CCCCC4)cc4c3C2=CNNC4=O)cn1 (stereo not drawn) : relative IC50 is 259

What the record says about Cc1ccc2nc(CN(CCN(Cc3nc4ccc(C)cc4[nH]3)Cc3nc4ccc(C)cc4[nH]3)Cc3nc4ccc(C)cc4[nH]3)[nH]c2c1 : relative IC50 is 8640
